TARGET SYSTEM: NMDA receptor histamine site (NMDA(HA)R), native NMDAR of rat hippocampal synaptosomes (Rattus norvegicus, UniProt P35439+Q00960)
Sequence (Q00960 27-1482, other chains not shown): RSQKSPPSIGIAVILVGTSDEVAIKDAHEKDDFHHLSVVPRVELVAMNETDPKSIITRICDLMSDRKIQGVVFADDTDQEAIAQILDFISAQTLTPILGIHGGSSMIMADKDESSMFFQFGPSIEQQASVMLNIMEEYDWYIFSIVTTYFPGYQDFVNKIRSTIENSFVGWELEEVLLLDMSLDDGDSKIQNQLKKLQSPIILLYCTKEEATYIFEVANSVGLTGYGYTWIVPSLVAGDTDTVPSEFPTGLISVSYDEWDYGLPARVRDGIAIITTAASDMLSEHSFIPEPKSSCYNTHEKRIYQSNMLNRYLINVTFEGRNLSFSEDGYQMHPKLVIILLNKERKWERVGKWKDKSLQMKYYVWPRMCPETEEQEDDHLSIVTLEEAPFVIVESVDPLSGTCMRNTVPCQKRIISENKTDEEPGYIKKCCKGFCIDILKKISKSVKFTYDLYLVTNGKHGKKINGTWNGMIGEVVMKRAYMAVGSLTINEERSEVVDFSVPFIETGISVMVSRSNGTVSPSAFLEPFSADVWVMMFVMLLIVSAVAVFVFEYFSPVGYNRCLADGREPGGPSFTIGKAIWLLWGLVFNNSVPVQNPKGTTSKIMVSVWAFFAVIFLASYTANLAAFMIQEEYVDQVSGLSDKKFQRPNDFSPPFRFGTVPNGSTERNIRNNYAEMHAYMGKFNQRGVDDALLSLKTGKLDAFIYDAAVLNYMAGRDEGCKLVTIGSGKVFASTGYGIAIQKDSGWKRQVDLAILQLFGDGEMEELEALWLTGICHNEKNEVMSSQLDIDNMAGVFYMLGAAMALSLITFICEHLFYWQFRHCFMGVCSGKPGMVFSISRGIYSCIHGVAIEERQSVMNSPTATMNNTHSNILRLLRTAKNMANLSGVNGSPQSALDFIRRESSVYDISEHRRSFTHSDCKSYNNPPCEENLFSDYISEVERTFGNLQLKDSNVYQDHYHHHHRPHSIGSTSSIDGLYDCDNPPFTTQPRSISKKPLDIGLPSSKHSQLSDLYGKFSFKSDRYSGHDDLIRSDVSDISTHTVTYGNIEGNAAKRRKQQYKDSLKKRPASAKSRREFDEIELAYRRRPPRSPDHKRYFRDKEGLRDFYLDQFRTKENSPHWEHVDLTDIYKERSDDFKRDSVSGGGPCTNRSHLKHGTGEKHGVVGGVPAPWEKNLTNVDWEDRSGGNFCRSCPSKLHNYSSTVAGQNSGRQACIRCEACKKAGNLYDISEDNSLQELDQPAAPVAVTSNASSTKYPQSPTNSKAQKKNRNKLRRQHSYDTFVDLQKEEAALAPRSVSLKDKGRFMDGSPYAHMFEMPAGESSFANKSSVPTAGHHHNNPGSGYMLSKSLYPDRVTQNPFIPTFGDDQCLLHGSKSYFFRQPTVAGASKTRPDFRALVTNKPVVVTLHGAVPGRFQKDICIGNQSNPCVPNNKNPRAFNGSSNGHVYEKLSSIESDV
PROCEDURE DETAILS: tissue or organelle
DETAILS: read-out: Intrinsec activity %
PROPERTY LABEL: Emax (%)

- TEST SMILES: "Cc1sc(N)nc1CCCN"
  TEST RESULT: 53
- TEST SMILES: "NCCCCCc1csc(N)n1"
  TEST RESULT: 20
- TEST SMILES: "NCCCCCCc1csc(N)n1"
  TEST RESULT: 23
- TEST SMILES: "Cc1sc(N)nc1CCCCN"
  TEST RESULT: 29
